test: gradient 5% acetonitrile 3 min, to 50% in 2 min, to 85% in 15 min, held 3 min, 100 µL/min; details: column: Zorbax Extend-C18 2.1 x 50 mm; eluents: water / acetonitrile, 0.1% formic acid
Endpoint: RP-LC retention time (s)
Please reply with the bare figure in s and do not write the unit itself.

Request: Query (compound): "Cc1ccc(C(=O)N2CCc3[nH]cnc3C23CCCCC3)s1" ; field requested: RP-LC retention time
Response: 606

Request: Query (compound): CCC(C)NC(=O)c1ccc2c(c1)CC(=O)N2C (stereo unspecified) ; field requested: RP-LC retention time
Response: 644

Request: Query (compound): "O=C(NC1CCCCCC1)c1cn(-c2ccc(-c3nc(C4CC4)no3)cn2)cn1" ; field requested: RP-LC retention time
Response: 1010

Request: Query (compound): NC(=O)c1cc[nH]c1C1CCCN(C(=O)c2ccc(Cn3cncn3)o2)C1 (stereo unspecified) ; field requested: RP-LC retention time
Response: 560

Request: Query (compound): "CCCc1noc(-c2ccc3nnc(CC(=O)NC4CCCCC4)n3c2)n1" ; field requested: RP-LC retention time
Response: 826

Request: Query (compound): "O=c1c2nc(-c3ccc(Br)cc3)cn2ccn1-c1ccc(F)c(F)c1" ; field requested: RP-LC retention time
Response: 924

* * *

test: gradient 5% acetonitrile 3 min, to 50% in 2 min, to 85% in 15 min, held 3 min, 100 µL/min; conditions: column: Zorbax Extend-C18 2.1 x 50 mm; eluents: water / acetonitrile, 0.1% formic acid
Assignment: determine reported RP-LC retention time for the given compounds.
Please reply with the bare figure in s and do not write the unit itself.

Request: Query (compound): "COCCCNC(=O)Cn1cccc(-c2nc(-c3ccc(F)cc3)no2)c1=O" ; field requested: RP-LC retention time
Response: 702

Request: Query (compound): "CCOC(=O)c1ccc(Oc2ncnc(N)c2[N+](=O)[O-])cc1" ; field requested: RP-LC retention time
Response: 769

Request: Query (compound): "Cc1cc2nc(C)c(=O)n(CC(=O)NCCCN(C)C3CCCCC3)c2cc1C" ; field requested: RP-LC retention time
Response: 624

Request: Query (compound): "CCCCCn1c(=O)c2ccccc2n(Cc2nc(-c3ccccc3Cl)no2)c1=O" ; field requested: RP-LC retention time
Response: 1260

Request: Query (compound): CS(=O)(=O)N1CCC(C(=O)Nc2ccc(C(F)(F)F)cc2)Oc2ccc(Cl)cc21 (stereo unspecified) ; field requested: RP-LC retention time
Response: 1060

Request: Query (compound): "CCOc1ccc(-n2nnnc2CNS(=O)(=O)c2cccc(C(F)(F)F)c2)cc1" ; field requested: RP-LC retention time
Response: 892

* * *

test: gradient 5% acetonitrile 3 min, to 50% in 2 min, to 85% in 15 min, held 3 min, 100 µL/min; details: column: Zorbax Extend-C18 2.1 x 50 mm; eluents: water / acetonitrile, 0.1% formic acid
Assignment: determine reported RP-LC retention time for the given compounds.
Please reply with the bare figure in s and do not write the unit itself.

Request: Query (compound): "O=C(Nc1ccc(F)c(F)c1)c1cnc(-c2ccc(F)cc2)nc1-c1ccncc1" ; field requested: RP-LC retention time
Response: 985

Request: Query (compound): "O=C(Nc1ccc(Cl)c(N2CCCS2(=O)=O)c1)c1ccccc1C(F)(F)F" ; field requested: RP-LC retention time
Response: 791

Request: Query (compound): "Cc1ccccc1C(=O)Nc1c(-c2ccccc2)nc2ccccn12" ; field requested: RP-LC retention time
Response: 634

Request: Query (compound): "Cc1cc(C)n(-c2cc(NCCNC(=O)c3c[nH]c4ccccc34)nc(C)n2)n1" ; field requested: RP-LC retention time
Response: 630

Request: Query (compound): CCc1ccc(N2CC(c3noc(-c4ccc(OC)cc4)n3)CC2=O)cc1 (stereo unspecified) ; field requested: RP-LC retention time
Response: 1080

Request: Query (compound): CCNC(=O)N1CCCC(c2cccc(C(=O)NC3CCCCC3)c2)C1 (stereo unspecified) ; field requested: RP-LC retention time
Response: 817

* * *

experiment: gradient 5% acetonitrile 3 min, to 50% in 2 min, to 85% in 15 min, held 3 min, 100 µL/min; conditions: column: Zorbax Extend-C18 2.1 x 50 mm; eluents: water / acetonitrile, 0.1% formic acid
Assignment: determine reported RP-LC retention time for the given molecules.
Please reply with the bare figure in s and do not write the unit itself.

Request: Query (molecule): O=C(C1CCCN(c2ncnc3c2nc2n3CCCCC2)C1)N1CCc2ccccc21 (configuration not stated) ; field requested: RP-LC retention time
Response: 860

Request: Query (molecule): "CCN1CCN(S(=O)(=O)c2cc(-c3[nH]ncc3C(=O)N3CCCC3)oc2C)CC1" ; field requested: RP-LC retention time
Response: 577

Request: Query (molecule): "Cc1cc(NC(=O)Cn2c(=O)cc(-c3nc(C4CC4)no3)c3ccccc32)ccc1F" ; field requested: RP-LC retention time
Response: 998

Request: Query (molecule): "O=C(Cn1nc2c(SC3CCCCC3)nccn2c1=O)NC1CCCC1" ; field requested: RP-LC retention time
Response: 939

Request: Query (molecule): "O=C(Nc1ccc2c(c1)CN(S(=O)(=O)c1cccnc1)CCO2)C1CC1" ; field requested: RP-LC retention time
Response: 712

Request: Query (molecule): "CC1CCN(C(=O)CCC(=O)N2CCN(c3nc4cccnc4s3)CC2)CC1" ; field requested: RP-LC retention time
Response: 688

Request: Query (molecule): "COc1ccc(-c2nnc(-c3ccc(Cl)c(S(=O)(=O)N4CCCC4)c3)o2)cc1" ; field requested: RP-LC retention time
Response: 1060

* * *

assay: gradient 5% acetonitrile 3 min, to 50% in 2 min, to 85% in 15 min, held 3 min, 100 µL/min; conditions: column: Zorbax Extend-C18 2.1 x 50 mm; eluents: water / acetonitrile, 0.1% formic acid
Assignment: determine reported RP-LC retention time for the given compounds.
Please reply with the bare figure in s and do not write the unit itself.

Request: Query (compound): Cn1nc(N2CCC(NC(=O)c3nccc4ccccc34)C2)ccc1=O (centres undefined) ; field requested: RP-LC retention time
Response: 695

Request: Query (compound): CSc1ncccc1C(=O)N1CCCC1c1nc(-c2ccc(F)cc2F)no1 (centres undefined) ; field requested: RP-LC retention time
Response: 907

Request: Query (compound): "CCCNc1cc(N2CCC(CCC(=O)NCCC(C)C)CC2)ncn1" ; field requested: RP-LC retention time
Response: 693

Request: Query (compound): "CCn1cc2c(n1)c(=O)n(Cc1ccc(F)cc1)c(=O)n2CC(=O)Nc1cc(F)ccc1F" ; field requested: RP-LC retention time
Response: 905

Request: Query (compound): "Cc1ncc2c(n1)C[C@@H]1CC[C@H]2N1C(=O)Nc1ccc(C)c(C)c1" ; field requested: RP-LC retention time
Response: 707

Request: Query (compound): "Cc1ccc(-c2nc3ncccn3c2Nc2ccc3c(c2)OCCO3)cc1" ; field requested: RP-LC retention time
Response: 684

Request: Query (compound): COCCNC(=O)C1c2ccccc2CC(=O)N1Cc1ccccc1 (centres undefined) ; field requested: RP-LC retention time
Response: 711

Request: Query (compound): COc1ccc(N2CCN(C(=O)C3CCN(C(=O)C4Sc5ccccc5NC4=O)CC3)CC2)cc1 (centres undefined) ; field requested: RP-LC retention time
Response: 705

Request: Query (compound): "Fc1ccc(C(OCCN2CCN(C/C=C/c3ccccc3)CC2)c2ccc(F)cc2)cc1" ; field requested: RP-LC retention time
Response: 916

* * *

assay: gradient 5% acetonitrile 3 min, to 50% in 2 min, to 85% in 15 min, held 3 min, 100 µL/min; conditions: column: Zorbax Extend-C18 2.1 x 50 mm; eluents: water / acetonitrile, 0.1% formic acid
Endpoint: RP-LC retention time (s)
Please reply with the bare figure in s and do not write the unit itself.

Request: Query (molecule): "O=C(COc1ccccc1)N1CCN(c2cc(-c3ccccc3)[nH]n2)CC1" ; field requested: RP-LC retention time
Response: 776

Request: Query (molecule): "Cc1cccc(-c2nnc(CC(=O)NC3CCCCC3)o2)c1" ; field requested: RP-LC retention time
Response: 817

Request: Query (molecule): "Cc1c(C)n(-c2ccccc2)c2ncn(CC(=O)NCc3ccco3)c(=O)c12" ; field requested: RP-LC retention time
Response: 809

Request: Query (molecule): "Cn1c(=O)n(C)c2cc(S(=O)(=O)c3ccccc3)c(NC(=O)Cc3cccc(F)c3)cc21" ; field requested: RP-LC retention time
Response: 799

Request: Query (molecule): COc1ccc(OC)c2sc(NC(=O)C3CCCCN3S(C)(=O)=O)nc12 (stereo not given) ; field requested: RP-LC retention time
Response: 793

* * *

experiment: gradient 5% acetonitrile 3 min, to 50% in 2 min, to 85% in 15 min, held 3 min, 100 µL/min; details: column: Zorbax Extend-C18 2.1 x 50 mm; eluents: water / acetonitrile, 0.1% formic acid
Endpoint: RP-LC retention time (s)
Please reply with the bare figure in s and do not write the unit itself.

Request: Query (molecule): "Cc1[nH]c(C)c(S(=O)(=O)N2CCC(C(=O)Nc3cccc(F)c3)CC2)c1C(=O)N1CCCC1" ; field requested: RP-LC retention time
Response: 720

Request: Query (molecule): "Nc1ncnc(N2CCN(C(c3ccccc3)c3ccccc3)CC2)c1[N+](=O)[O-]" ; field requested: RP-LC retention time
Response: 698

Request: Query (molecule): "Cc1oc(-c2cccc(Cl)c2)nc1CN1CCN(C(=O)NC2CCCC2)CC1" ; field requested: RP-LC retention time
Response: 690

Request: Query (molecule): "COCC(=O)Nc1cccn2nc(C(C)C)nc12" ; field requested: RP-LC retention time
Response: 717

Request: Query (molecule): "CSc1nnc(-c2nn(C)c3c2CN(C(=O)c2ccccc2Br)CC3)n1C" ; field requested: RP-LC retention time
Response: 717

Request: Query (molecule): CC1=C(C(=O)N2CCOCC2)C(c2cc(Br)ccc2F)C2=C(CC(C)(C)CC2=O)N1 (stereo unspecified) ; field requested: RP-LC retention time
Response: 715
